Data credit: PubChem BioAssay (NCI)

Experiment: NCI Yeast Anticancer Drug Screen. Data for the rad50 strain (AID 155);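 further: 0% = growth of vehicle-only cultures of the same strain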
Settings: S. cerevisiae rad50 strain growth inhibition; at 50.0 µM; hits give high values
This is part of a sample that, as a whole, favours compounds with a hit. Of some 79,000 tested, about 15% had one in any assay. Active and inactive are the calls of the source. No stated cut-off is given here; in the data, active means growth inhibition above about 70%; inactive means the rest.
Overview of recorded growth inhibition for various compounds

// below: answered compounds
O=C(Cc1ccccc1)NC(CSSCC(NC(=O)Cc1ccccc1)C(=O)O)C(=O)O (stereo unspecified); 26.3% (inactive)
CC1=CC(=O)C2CC1C2(C)C (stereo unspecified); 6.55% (inactive)
CN(C)CC1CCCCC1O (stereo unspecified); -4.75% (inactive)

Entry `CCOC(=O)Cc1c(Cc2[nH]c(C(=O)OCc3ccccc3)c(CC(=O)OCC)c2CC(=O)OCC)[nH]c(C(=O)OCc2ccccc2)c1CC(=O)OCC` : reported growth inhibition = ?
-10.7% (inactive)

Entry `N#Cc1cnsc1` : reported growth inhibition = ?
-4.15% (inactive)

Entry `COC1(OC)OC(c2ccc([N+](=O)[O-])cc2)=C(c2ccc([N+](=O)[O-])cc2)OC1(OC)OC` : reported growth inhibition = ?
56% (inactive)

====

Test: NCI Yeast Anticancer Drug Screen. Data for the cln2 rad14 strain (AID 165);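 further: 0% = growth equal to vehicle treated cultures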
Conditions: S. cerevisiae cln2 rad14 strain, at 50.0 µM, hits give high values
The panel holds about 79,000 compounds, 15% with a hit somewhere; the sample as a whole holds those more often.
Overview of recorded growth inhibition for various molecules
Your answer is read as %, so omit the unit and give the number.

// below: answered molecules
CCCCCc1[nH]c(=O)[nH]c(=O)c1S(=O)(=O)N1CCCCC1; 3.4
CSc1c2c(c(C)c3c1[nH]c1ccccc13)C=NCC2; -83.2
O=C(NC1CCCCC1)c1ccccc1Cl; 24.2
CNC(=O)O[C@H]1C(=O)O[C@@H]2C[C@H]3C(C)=C(O)C(=O)C[C@]3(C)[C@H]3[C@@H](O)[C@H](O)[C@@]4(C(=O)OC)OC[C@]32[C@@H]14; 7.3
Cc1cccc2c1Oc1ccccc1C2N1C(=O)c2ccccc2C1=O (stereo unspecified); 25.4

Turning to the following molecule.
Entry O=P(O)(O)OC1C(OP(=O)(O)O)C(OP(=O)(O)O)C(OP(=O)(O)O)C(OP(=O)(O)O)C1OP(=O)(O)O.[Zn+2] (stereo unspecified) : reported growth inhibition = ?
9.6

====

Overview of recorded growth inhibition for various molecules
Assay: NCI Yeast Anticancer Drug Screen. Data for the mlh1 rad18 strain (AID 175)
Settings: S. cerevisiae mlh1 rad18 strain growth inhibition; at 50.0 µM; hits give high values
This is part of a sample that, as a whole, favours compounds with a hit. Of some 79,000 tested, about 15% had one in any assay.
Your answer is read as %, so omit the unit and give the number.

// below: answered molecules
CCC(c1ccccc1)c1cc(C(C)(C)C)cc(C(C)(C)C)c1O (stereo unspecified); 0.95
CC(=O)c1c(C)nc(SSc2nc(C)c(C(C)=O)c(-c3ccc(Cl)cc3)c2C#N)c(C#N)c1-c1ccc(Cl)cc1; -2.2
CC(C)CC(NC(=O)CN1C(=O)c2ccccc2C1=O)C(=O)O (stereo unspecified); -24.1
CCN(C)C(=O)NC(C)=O; 15
O=C(O)C#Cc1ccc([N+](=O)[O-])cc1; 16.5

Entry `CCOCCn1c(=O)cc(C)c2ccccc21` : reported growth inhibition = ?
-13.7
